Below is a list of entries, each paired with its recorded Highest % Animals with Effective Block value.
tested on: sciatic nerve; settings: 30 μM TTX with CPE; effective if latency >7 seconds at any point; listed as '—' = TTX alone
Express the result in % but write the number alone.

# annotated cases, reported Highest % Animals with Effective Block shown
Lab note: sciatic nerve assay, enter Highest % Animals with Effective Block for CCCCCCCCOS(=O)(=O)[O-].[Na+] [SOS, Sodium Octyl Sulfate] here
100

Lab note: sciatic nerve assay, enter Highest % Animals with Effective Block for CCCCCCCCCCCC[N+](C)(C)C.[Br-] [DDAB, Dodecyl-trimethyl-ammonium Bromide] here
100

Lab note: sciatic nerve assay, enter Highest % Animals with Effective Block for CCCCCCCCCCCCOS(=O)(=O)[O-].[Na+] [SLS, Sodium Dodecyl Sulfate] here
88

Okay, now this compound:
Lab note: sciatic nerve assay, enter Highest % Animals with Effective Block for CCCCCCCC[N+](C)(C)C.[Br-] [OTAB, Octyl-trimethyl-ammonium Bromide] here
100

====

Below is a list of entries, each paired with its recorded % Survival value.
test system: C2C12 myotubes; details: C2C12 myotubes, 2-hour exposure to each CPE at its EC50eff; head 'TTX 30 μm with:'; mean ± SD, from FIG. 2
Express the result in % but write the number alone.

# annotated cases, reported % Survival shown
Provide one value: measured % Survival of CCCCCCCCCCCC[N+](C)(C)C.[Br-] [DDAB, Dodecyl-trimethyl-ammonium Bromide]
5

Provide one value: measured % Survival of CCCCCCCCCCCCOS(=O)(=O)[O-].[Na+] [SLS, Sodium Dodecyl Sulfate]
17

Others:
Provide one value: measured % Survival of CCCCCCCCOS(=O)(=O)[O-].[Na+] [SOS, Sodium Octyl Sulfate]
5

Provide one value: measured % Survival of CCCCCCCC[N+](C)(C)C.[Br-] [OTAB, Octyl-trimethyl-ammonium Bromide]
53
